# System Tested: 5-HT1A (Homo sapiens)
# Sequence (P08908 1-422): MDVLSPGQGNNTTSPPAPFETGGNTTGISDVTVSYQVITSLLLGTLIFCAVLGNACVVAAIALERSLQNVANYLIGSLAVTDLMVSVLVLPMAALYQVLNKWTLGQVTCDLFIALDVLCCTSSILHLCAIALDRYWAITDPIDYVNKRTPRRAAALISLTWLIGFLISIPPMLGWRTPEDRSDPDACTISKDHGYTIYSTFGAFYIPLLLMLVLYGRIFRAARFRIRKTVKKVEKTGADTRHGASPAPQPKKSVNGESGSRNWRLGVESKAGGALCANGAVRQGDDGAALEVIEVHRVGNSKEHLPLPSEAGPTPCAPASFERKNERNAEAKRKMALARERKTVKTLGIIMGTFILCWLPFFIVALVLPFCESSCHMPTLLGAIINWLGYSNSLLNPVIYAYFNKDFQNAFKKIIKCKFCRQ
pKi: −log10 of the molar value.
# Lookup of reported pKi keyed by entry

Return pKi measured with 5-HT1A (Homo sapiens) given this compound: COc1ccc(N2Cc3cccc(Cl)c3C2=O)cc1OCCN1CCC(C)CC1
< 6.00

Return pKi measured with 5-HT1A (Homo sapiens) given this compound: COc1ccc(N2Cc3cccc(I)c3C2=O)cc1OCCN1CCC(C)CC1
< 6.00

Return pKi measured with 5-HT1A (Homo sapiens) given this compound: COc1ccc(N2Cc3cccc(F)c3C2=O)cc1OCCN1CCC(C)CC1
< 6.00

Return pKi measured with 5-HT1A (Homo sapiens) given this compound: COc1ccc(N2Cc3cccc(Br)c3C2=O)cc1OCCN1CCC(C)CC1
< 6.00

---

// endpoint pKi / system 5-HT2B (Homo sapiens, UniProt P41595)
By convention, pKi is the negative base-10 log of a molar concentration.

{"Molecular String": "COc1ccc(N2Cc3cccc(Br)c3C2=O)cc1OCCN1CCC(C)CC1", "Quantity Kind": "pKi", "Value Observed": 6.75}
{"Molecular String": "COc1ccc(N2Cc3cccc(Cl)c3C2=O)cc1OCCN1CCC(C)CC1", "Quantity Kind": "pKi", "Value Observed": 6.71}
{"Molecular String": "COc1ccc(N2Cc3cccc(I)c3C2=O)cc1OCCN1CCC(C)CC1", "Quantity Kind": "pKi", "Value Observed": 6.90}

Return pKi measured with 5-HT2B (Homo sapiens, UniProt P41595) given this compound: COc1ccc(N2Cc3cccc(F)c3C2=O)cc1OCCN1CCC(C)CC1
Sequence (P41595 whole entry, species assumed): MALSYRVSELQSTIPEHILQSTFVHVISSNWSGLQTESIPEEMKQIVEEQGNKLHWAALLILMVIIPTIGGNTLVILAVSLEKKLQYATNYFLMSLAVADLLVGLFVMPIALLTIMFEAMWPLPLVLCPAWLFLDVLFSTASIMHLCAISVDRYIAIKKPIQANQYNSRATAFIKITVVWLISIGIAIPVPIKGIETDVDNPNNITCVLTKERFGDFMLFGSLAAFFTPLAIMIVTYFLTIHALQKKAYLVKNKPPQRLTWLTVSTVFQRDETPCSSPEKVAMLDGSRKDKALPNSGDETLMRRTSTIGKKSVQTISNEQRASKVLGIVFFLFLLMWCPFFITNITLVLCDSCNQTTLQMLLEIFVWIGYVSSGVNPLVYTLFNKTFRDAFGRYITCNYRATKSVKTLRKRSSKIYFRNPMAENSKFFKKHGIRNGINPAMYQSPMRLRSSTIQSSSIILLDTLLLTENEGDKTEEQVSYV
6.36

---

# Assay Summary: lipophilicity, octanol/phosphate buffer partition
# Assay type: physicochemical
# Test Context: pH 7.4, read-out: log P7.4
Quantity Kind: logD
Just the number, please, no unit attached.

{"Compound": "CC1CCN(CCOc2cc(N3Cc4cccc(Cl)c4C3=O)ccc2O[11CH3])CC1 [[^11C]6]", "Value Observed": 2.81}

For the next question, use this compound.
For the compound CC1CCN(CCOc2cc(N3Cc4cccc(I)c4C3=O)ccc2O[11CH3])CC1 [[^11C]9] , what logD is on record?
2.89

---

Target chain: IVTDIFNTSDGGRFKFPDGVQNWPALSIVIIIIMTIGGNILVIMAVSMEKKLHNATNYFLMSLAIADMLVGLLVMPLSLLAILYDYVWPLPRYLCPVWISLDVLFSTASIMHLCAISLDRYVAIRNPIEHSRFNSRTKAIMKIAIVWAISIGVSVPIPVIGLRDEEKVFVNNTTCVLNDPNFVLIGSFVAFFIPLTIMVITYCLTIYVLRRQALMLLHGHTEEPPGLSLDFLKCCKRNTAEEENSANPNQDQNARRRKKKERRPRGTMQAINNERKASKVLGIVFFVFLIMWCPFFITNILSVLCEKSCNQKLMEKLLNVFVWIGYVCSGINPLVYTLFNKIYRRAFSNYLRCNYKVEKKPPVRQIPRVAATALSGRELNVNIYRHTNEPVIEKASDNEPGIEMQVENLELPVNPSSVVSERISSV
# Lookup of reported Ki keyed by entry
Lab book: enter the figure in nM, no units written.

{"Molecular String": "COc1ccc(N2Cc3cccc(I)c3C2=O)cc1OCCN1CCC(C)CC1", "Units Of Measure": "nM", "Ki": 1.1}
{"Molecular String": "COc1ccc(N2Cc3cccc(Br)c3C2=O)cc1OCCN1CCC(C)CC1", "Units Of Measure": "nM", "Ki": 2.9}
{"Molecular String": "COc1ccc(N2Cc3cccc(F)c3C2=O)cc1OCCN1CCC(C)CC1", "Units Of Measure": "nM", "Ki": 28}

For the next question, use this compound.
For the compound COc1ccc(N2Cc3cccc(Cl)c3C2=O)cc1OCCN1CCC(C)CC1 , what Ki is on record?
2.2
